Test: Water solubility analysis (dissolved CBD in deionised water, HPLC)
Format: physicochemical
Conditions: deionised water; supernatant after centrifugation; HPLC; read-out: CBD Concentration (water solubility)
recorded_endpoint: solubility

Input: # get_value(readout='solubility', item= C=C(C)[C@@H]1CCC(C)=C[C@H]1c1c(O)cc(CCCCC)cc1O )
Output: < 0.06 µg/mL

* * *

Experiment: In vitro permeation (PAMPA) test
Format: in vitro ADME
Conditions: donor 50 mM phosphate buffer pH 6.5 with 5% DMSO, 159 µM CBD, 12 replicates, read-out: average permeability
recorded_endpoint: Papp at 260 min, 159 µM
Phrase the answer as number then unit, nothing more needed.

Input: Bench note: what Papp at 260 min, 159 µM did C=C(C)[C@@H]1CCC(C)=C[C@H]1c1c(O)cc(CCCCC)cc1O show?
Output: 1.98 ×10⁻⁶ cm/s
